Cited source: patent US7777047B2

Record form. Attribute: melting point. Fill in for each entry.

Exercise: GET /values?readout=melting point&item= CN(c1cc(OCCCS(C)(=O)=O)cc2cc(C3=NCC(CN4CCN(S(C)(=O)=O)CC4)S3)[nH]c12)S(=O)(=O)c1ccccn1 (stereo not shown) [Example 325]
Solution: 151 to 153 °C

Exercise: GET /values?readout=melting point&item= CN1CCC(CC2CN=C(c3cc4cccc(N(C)S(=O)(=O)c5cccs5)c4[nH]3)S2)=N1 (stereo not shown) [Example 302]
Solution: 149 to 150 °C

Exercise: GET /values?readout=melting point&item= CN(c1cccc2cc(C3=NCC(CN4CCSCC4)S3)[nH]c12)S(=O)(=O)c1ccccn1 (stereo not shown) [Example 303]
Solution: 142 to 144 °C

Exercise: GET /values?readout=melting point&item= CN(c1cccc2cc(C3=NCC4(CCN(CC(N)=O)CC4)S3)[nH]c12)S(=O)(=O)c1cccs1 [Example 414]
Solution: 226 °C

Exercise: GET /values?readout=melting point&item= CON(C)C(=O)CC1CN=C(c2cc3cccc(N(C)S(=O)(=O)c4cccs4)c3[nH]2)S1 (stereo not shown) [Example 299]
Solution: 153 to 154 °C

Exercise: GET /values?readout=melting point&item= CN(c1cccc2cc(C3=NCC(CC(N)=O)S3)[nH]c12)S(=O)(=O)c1ccccn1 (stereo not shown) [Example 334]
Solution: 206 to 207 °C

Exercise: GET /values?readout=melting point&item= CN(c1cccc2cc(C3=NCC(CC(=O)O)S3)[nH]c12)S(=O)(=O)c1ccccn1 (stereo not shown) [Example 333]
Solution: 231 to 233 °C

Exercise: GET /values?readout=melting point&item= CN(c1cccc2cc(C3=NCC(CC(=O)O)S3)[nH]c12)S(=O)(=O)c1cccs1 (stereo not shown) [Example 284]
Solution: 232 to 234 °C

Exercise: GET /values?readout=melting point&item= CC(=O)N1CCN(CC2CN=C(c3cc4cc(OCCCS(C)(=O)=O)cc(N(C)S(=O)(=O)c5ccccn5)c4[nH]3)S2)CC1 (stereo not shown) [Example 324]
Solution: 165 to 167 °C

Exercise: GET /values?readout=melting point&item= CN(c1cccc2cc(C3=NCC(CC(=O)N4CCC[C@H]4C(=O)O)S3)[nH]c12)S(=O)(=O)c1ccccc1C(F)(F)F (stereo partly shown) [Example 316]
Solution: 132 to 135 °C
